assay: budding yeast growth modifiers under rapamycin – strain BY4716, OD600, 96 h, primary screen (AID 1091); further: test concentration not given here; details: S. cerevisiae BY4716 + rapamycin, higher = more signal, called active from +8 up or from −8 down
z-score values by entry
Quick one: just the number, no unit, thanks!

Consider the worked cases shown below.
compoundString: C=C(/C(=C/C[C@@H](OC(=O)c1ccncc1)c1ccccc1OCCO)c1cnc2ccccc2c1)C(C)C
z-score: -4.07

compoundString: O=C1N(CCS(=O)(=O)c2ccccc2)Cc2ccccc2C[C@@]12COC(c1ccc(OCCCO)cc1)=N2
z-score: 3.45

compoundString: CN(C)C(=O)[C@@]1(CCC(=O)OC(C)(C)C)N=C(c2ccc(OCCCO)cc2)O[C@H]1c1ccccc1N=[N+]=[N-]
z-score: 0.701

Field: next compound
Which z-score value belongs to NC(=O)[C@@H]1[C@H]2C(=O)O[C@H](c3ccccc3)[C@H](c3ccccc3)N2[C@H](c2ccccc2OCCO)[C@@]12C(=O)Nc1ccc(C#CCCO)cc12 ? 2.38

----------
target: Torsin-1A (Homo sapiens); assay: torsin A mutant lysate binding on microarrays – cell lysate, small-molecule microarray, COS7 lysate, 635/667 nm fluorescence, primary screen (AID 1150); settings: COS7 hTOR1A mutant lysate, 635 nm fluorescence, higher = more signal;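 further: score pools 667 nm emission and signal to noise measuring lysate protein binding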
Param threshold (0.7) applies to composite z-score; output Fulfilled when value >= threshold, Not fulfilled when value < threshold.

molecule: CCCC[C@@H](O)C1=C(COc2ccccc2)Cn2c(=O)n(-c3ccccc3)c(=O)n2[C@H]1CO
groupLabel: Not fulfilled
--
molecule: O=C1O[C@H](c2ccccc2)[C@H](c2ccccc2)N2[C@H]1[C@@H](C(=O)NC[C@H](O)c1ccccc1)[C@]1(C(=O)Nc3ccccc31)[C@H]2c1ccccc1OCCO
groupLabel: Fulfilled
--
molecule: CC(C)CNC(=O)[C@@]1(C)c2ccccc2C(=O)N(Cc2ccccc2)[C@H]1c1ccc(CO)cc1
groupLabel: Not fulfilled
--
molecule: C[N+](C)(C)CCCCNC(=O)[C@H]1C[C@H]2C(=O)NCC(=O)N2[C@H]1c1ccc(O)cc1
groupLabel: Not fulfilled
--
molecule: C=CC[C@]1(C(=O)NCC(O)CO)N=C(c2ccc(OCCCO)cc2)O[C@H]1c1ccccc1N=[N+]=[N-] (some centres not stated)
groupLabel: Fulfilled

Is composite z-score for CCOC(=O)C1=CCC(c2cccc(Cl)c2)O1 (configuration not stated) at or above 0.7? Not fulfilled

Is composite z-score at least 0.7? Consider COCCOC(=O)N1C(=O)[C@@]2(c3ccccc31)[C@H](c1ccccc1OCCO)N1[C@H](c3ccccc3)[C@H](c3ccccc3)OC(=O)[C@H]1[C@@H]2C(=O)N1CCc2cc(OC)c(OC)cc2C1 Not fulfilled

----------
experiment: probe aWnt5a binding to arrayed compounds – biochemical, biotinylated probe, 635/667 nm fluorescence, primary screen (AID 1113); conditions: small-molecule microarray, higher = more signal;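 further: score merges 667 nm fluorescence intensity with signal-to-noise per printed feature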
Measured composite z-score, listed per entry.

The following compounds have reported results that may help.
compoundString: COc1ccc([Si](C)(C)[C@@H]2[C@@H](CC(=O)N(CCO)Cc3ccccc3)O[C@]3(C(=O)N(Cc4ccc(N5CCOC5=O)cc4)c4ccccc43)[C@H]2C)cc1
valueKind: composite z-score
observedMeasurement: -0.0337

compoundString: Cc1ccc(S[C@]2(C(=O)O)CC(=O)N(C3CCCCC3)[C@@H]2c2ccc(CO)cc2)cc1
valueKind: composite z-score
observedMeasurement: 0.0581

Fill blank: measured composite z-score of the compound CC(C)(C)OC(=O)CC[C@]1(C(=O)O)COC(c2ccc(OCCCO)cc2)=N1 is ____. 0.105

composite z-score for C/C=C/[C@@H](CCn1cc([C@H](O)c2ccccc2)nn1)[Si](C)(C)c1ccc(OC)cc1 ? -0.012

----------
molecular target: Dickkopf-related protein 1 (Homo sapiens); experiment: small molecules binding DKK1 protein – biochemical, small-molecule microarray, 635 nm fluorescence scan, primary screen (AID 1106); conditions: higher = more signal;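 further: score merges emission near 667 nm with signal to noise over three replicate slides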
valueKind: composite z-score
// response body must contain only the number

molecule: COCCOC(=O)N1C(=O)[C@@]2(c3ccccc31)[C@H](c1ccccc1OCCO)N1[C@H](c3ccccc3)[C@H](c3ccccc3)OC(=O)[C@H]1[C@@H]2C(=O)N1CCc2cc(OC)c(OC)cc2C1
composite z-score: 0.424

molecule: O=C1OCCC=C[C@H]2OC34C=CCN(Cn5nnc6ccccc65)C(=O)[C@H]3N(CCCCCO)C(=O)[C@@H]4C12 (stereo partly specified)
composite z-score: -0.925

molecule: O=C1O[C@@H](c2ccccc2)[C@@H](c2ccccc2)N2[C@@H](c3ccc(O)cc3)[C@]3(C(=O)Nc4ccc(C#CC5=CCCCC5)cc43)[C@@H](C(=O)Nc3nc4ccccc4s3)[C@H]12
composite z-score: 1.06

molecule: [N-]=[N+]=NCc1ccccc1C[C@]1(C(=O)NCCN2CCOCC2)COC(c2ccc(OCCCO)cc2)=N1
composite z-score: -0.36

molecule: COCCOC(=O)N1C(=O)[C@@]2(c3cc(C#CC4(O)CCCCCC4)ccc31)[C@H](C(=O)NC[C@H](O)c1ccccc1)[C@H]1C(=O)O[C@H](c3ccccc3)[C@H](c3ccccc3)N1[C@@H]2c1ccc(OCCO)cc1
composite z-score: 0.348

Hi! What's the reported composite z-score for COCCCNC(=O)[C@@]1(C)c2ccccc2C(=O)N(c2ccc(C)cn2)[C@H]1c1ccc(CO)cc1 on Dickkopf-related protein 1 (Homo sapiens)? -0.813

Form entry - test system: Dickkopf-related protein 1 (Homo sapiens); read-out: composite z-score; molecule: C=C(/C(=C/C[C@@H](OC(C)=O)c1ccccc1OCCO)c1cnc2ccccc2c1)C(C)C 0.331

----------
assay: growth modulation of vineyard yeast isolate – strain RM11-1a, OD600, basal, 24 h, primary screen (AID 1177);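 further: cultures grown under basal conditions with no added stressor; test concentration not given here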; details: S. cerevisiae RM11-1a growth, OD600, 24 h; higher = more signal, called active from +8 up or from −8 down
valueKind: z-score
Output: the number by itself.

Some entries whose results are on file:
compound: COc1ccc([Si](C)(C)[C@@H]2[C@@H](CCO)O[C@]3(C(=O)N(Cc4ccccc4)c4ccc(N5C(=O)COc6ccccc65)cc43)[C@H]2C)cc1
valueKind: z-score
observedMeasurement: 4.54
--
compound: COc1cc(C(O)C2C=CC3C(=O)NC(=O)C3N2Nc2ccc(Cl)cc2Cl)cc(OC)c1OC (centres undefined)
valueKind: z-score
observedMeasurement: 0.1
--
compound: COc1ccc([Si](C)(C)[C@H]2[C@H](CCO)O[C@@]3(C(=O)N(Cc4cccc(N5CCOC5=O)c4)c4ccccc43)[C@@H]2C)cc1
valueKind: z-score
observedMeasurement: 4.7

# input for lookup
What does the data say about its z-score? Entry: O=C1CSC(c2cccc([N+](=O)[O-])c2)N1c1ccccc1 (centres undefined) 0.468

----------
Examples of compounds with documented z-score follow.
molecular target: NADPH oxidase 2 (Homo sapiens); experiment: compounds shifting NOX2 Amplex Red fluorescence – cell-based, HEK293-NOX2, PMA-stimulated, NOX inhibitor project, primary screen (AID 1159); conditions: 45 min, higher = more signal, called active from +8 up or from −8 down; further: test concentration not given here
The answer should be written as a number, with no unit following it.

Solved cases (2 shown):
compound: O=C1O[C@@H](c2ccccc2)[C@@H](c2ccccc2)N2[C@@H](c3ccc(O)cc3)[C@]3(C(=O)Nc4ccc(C#CC5=CCCCC5)cc43)[C@@H](C(=O)Nc3nc4ccccc4s3)[C@H]12
z-score: 1.35
--
compound: CC(C)c1ccc(NN2C(C(O)c3ccccn3)C=CC3C(=O)N(c4ccccc4)C(=O)C32)cc1 (centres undefined)
z-score: -1.2

Look at this compound and give its reported z-score. COc1cc(NN2C(C(O)c3ccc(I)cc3)C=CC3C(=O)N(C)C(=O)C32)cc(OC)c1OC (centres undefined) -2.45

Report z-score for Cc1ccc(S[C@]2(C(=O)NCc3ccccc3)CC(=O)N(C3Cc4ccccc4C3)[C@@H]2c2ccc(CO)cc2I)cc1 please. 0.542

----------
test: growth effects on S. cerevisiae YJM789 – YJM789 clinical isolate, OD600, 24 h, basal, primary screen (AID 1089); conditions: called active from +8 up or from −8 down;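 further: growth of clinical yeast isolate S. cerevisiae YJM 789 seeded 1000 cells per well; test concentration not given here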
The source made the active and inactive calls.
Pick one: 1 (yes) for active, 0 (no) for inactive

Answered examples (8):
compound: C[N+](C)(C)CCCCNC(=O)[C@H]1C[C@H]2C(=O)NCC(=O)N2[C@H]1c1ccc(O)cc1
groupLabel: 0 (no)

compound: COc1ccc([Si](C)(C)[C@@H]2[C@@H](CC(=O)N(CCO)Cc3ccccc3)O[C@]3(C(=O)N(Cc4ccc(N5CCOC5=O)cc4)c4ccccc43)[C@H]2C)cc1
groupLabel: 0 (no)

compound: CCOC(=O)C1=CCC(c2cccc(Cl)c2)O1 (stereo not given)
groupLabel: 0 (no)

compound: COCCOC(=O)N1C(=O)[C@@]2(c3cc(C#CC4(O)CCCCCC4)ccc31)[C@H](C(=O)NC[C@H](O)c1ccccc1)[C@H]1C(=O)O[C@H](c3ccccc3)[C@H](c3ccccc3)N1[C@@H]2c1ccc(OCCO)cc1
groupLabel: 0 (no)

compound: CC(C)CCC[C@@H](C)[C@H]1CC[C@@]2(C)C3=C(CC[C@]12C)[C@@]1(C)CC[C@H](OC(=O)c2ccc(N)cc2)C(C)(C)C1CC3 (stereo not given in full)
groupLabel: 0 (no)

compound: COC(=O)c1c(CC[C@@H](CO)NC(=O)N[C@@H](C)Cn2cc(C3(O)CCCC3)nn2)oc(C(C)=O)c1C(=O)OC
groupLabel: 0 (no)

compound: C#CCOC(=O)N[C@H](C=CCCCC)c1ccccc1
groupLabel: 0 (no)

compound: C=CCC(OC(C)=O)[C@@H]1[C@@H](N(Cc2ccc(-c3ccccc3)cc2)C(=O)Cc2ccc(OC)cc2)c2cc(OCCCO)ccc2N1C(=O)c1ccc(-c2ccccc2)cc1 (stereo not given in full)
groupLabel: 0 (no)

Test call for this compound, please: COC(=O)[C@@]1(Cc2ccc(OC)cc2)[C@H]2c3cc(C(=O)N(C)C)n(CCF)c3C[C@H]2CN1C(=O)c1ccccc1 0 (no)

Given C=CC[C@]1(C(=O)N(C)C)N=C(c2ccc(OCCCO)cc2)O[C@H]1c1ccccc1 , state the outcome it received in this test. 0 (no)

// return assay outcome for COCCCNC(=O)[C@]1(Cc2ccccc2)N=C(c2ccc(OCCCO)cc2)O[C@@H]1c1ccccc1N=[N+]=[N-] 0 (no)

Please let me know the test result on file for COCCCNC(=O)[C@@H]1c2ccccc2C(=O)N(Cc2cc(F)cc(C(F)(F)F)c2)[C@H]1c1ccc(CO)cc1 . 0 (no)
